tgt: Procathepsin L (Homo sapiens)
Sequence (P07711 114-333 limits assumed): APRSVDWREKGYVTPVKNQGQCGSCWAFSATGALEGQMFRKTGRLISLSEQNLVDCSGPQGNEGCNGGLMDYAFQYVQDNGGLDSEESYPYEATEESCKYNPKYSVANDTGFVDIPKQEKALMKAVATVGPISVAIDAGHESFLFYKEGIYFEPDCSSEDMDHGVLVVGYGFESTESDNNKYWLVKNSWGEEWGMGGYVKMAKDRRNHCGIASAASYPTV
protocol-text: Inhibition of recombinant cathepsin L using ZFR-pNA as substrate at 100 uM preincubated for 45 mins
// label = met if inhibition is not less than 6%, otherwise not met

In plain terms: is recorded inhibition at least 6% for `C/C(COc1ccccc1)=N\N=C1/NC(=O)CS1` ? not met

Is it the case that C/C(COc1ccccc1)=N\N=C1\SC(c2ccccc2)C(=O)N1c1ccccc1 (racemic) has inhibition reaching or exceeding 6%? met

Evaluate C/C(COc1ccccc1)=N\N=C1\SC(C(C)C)C(=O)N1c1ccccc1 (racemic) : inhibition at minimum 6%? met

Has CCC1S/C(=N/N=C(\C)COc2ccccc2)N(c2ccccc2)C1=O (racemic) a recorded inhibition greater than or equal to 6%? not met

Is inhibition at least 6%? Consider C/C(COc1ccccc1)=N\N=C1\SC(C(C)C)C(=O)N1C (racemic) not met

Form field: inhibition at least 6%? Entry: C/C(COc1ccccc1)=N\N=C1/NC(=O)C(C(C)C)S1 (racemic) met

Say whether C/C(COc1ccccc1)=N\N=C1\SC(C)C(=O)N1c1ccccc1 (racemic) shows inhibition of 6% or more. not met

Entry `C/C(COc1ccccc1)=N\N=C1\SCC(=O)N1c1ccccc1` : is its inhibition no less than 6%? not met

Please indicate if the recorded inhibition for CCC1S/C(=N/N=C(\C)COc2ccccc2)NC1=S (racemic) meets or exceeds 6%. met
